Where do the numbers come from? From paper PMC6458391.

system: A549 (lung cancer) cell line; experiment: MTT cytotoxicity assay, A549; settings: read-out: Cells viability (%) A549, 30 μM; 30 μM, 48 h, triplicate, mean ± s.e.m.
Reported inhibition is given for each of the following compounds.
Give the value in % but do not write % after it.

Below: 3 compounds and their reported inhibition.
Compound	inhibition / %
Cc1nc2ccc(Cl)cc2c(=O)n1-c1ccc(S(=O)(=O)c2ccc(-n3c(C)nc4ccc(Cl)cc4c3=O)cc2)cc1 [Compound 7c]	88.4
Cc1nc2ccc([N+](=O)[O-])cc2c(=O)n1CCn1c(C)nc2ccc([N+](=O)[O-])cc2c1=O [Compound 5e]	97.8
Cc1nc2ccccc2c(=O)n1-c1ccc(S(=O)(=O)c2ccc(-n3c(C)nc4ccccc4c3=O)cc2)cc1 [Compound 7a]	82.1

Input line: Given Cc1nc2ccc(F)cc2c(=O)n1-c1ccc(S(=O)(=O)c2ccc(-n3c(C)nc4ccc(F)cc4c3=O)cc2)cc1 [Compound 7d] , state its recorded inhibition.
Output line: 96.7

Input line: What value of inhibition has been reported for the following compound? Cc1nc2ccc(Cl)cc2c(=O)n1-c1ccc(-n2c(C)nc3ccc(Cl)cc3c2=O)cc1 [Compound 6c]
Output line: 98

Input line: # lookup: inhibition of Cc1nc2ccc(F)cc2c(=O)n1Cc1ccc(Cn2c(C)nc3ccc(F)cc3c2=O)cc1 [Compound 4d]
Output line: 96.1

Input line: # lookup: inhibition of Cc1nc2ccc([N+](=O)[O-])cc2c(=O)n1-c1ccc(-n2c(C)nc3ccc([N+](=O)[O-])cc3c2=O)cc1 [Compound 6e]
Output line: 97.6

Input line: I would be grateful if you could share the reported inhibition for Cc1nc2ccccc2c(=O)n1CCn1c(C)nc2ccccc2c1=O [Compound 5a] .
Output line: 88.7

Input line: Look up inhibition for this compound: Cc1ccc2nc(C)n([C@H]3CC[C@H](n4c(C)nc5ccc(C)cc5c4=O)CC3)c(=O)c2c1 [Compound 3b]
Output line: 90.1

Input line: Item under review: Cc1nc2ccccc2c(=O)n1Cc1ccc(Cn2c(C)nc3ccccc3c2=O)cc1 [Compound 4a] . Reported inhibition?
Output line: 62.9

Input line: Would you kindly share the measured inhibition for Cc1nc2ccccc2c(=O)n1-c1cccc(-n2c(C)nc3ccccc3c2=O)c1 [Compound 11] ?
Output line: 83.2

Input line: Need inhibition, item Cc1nc2ccccc2c(=O)n1-c1ccc(-n2c(C)nc3ccccc3c2=O)cc1 [Compound 6a]
Output line: 90

Input line: What value of measured inhibition is listed for Cc1ccc2nc(C)n(Cc3ccc(Cn4c(C)nc5ccc(C)cc5c4=O)cc3)c(=O)c2c1 [Compound 4b] ?
Output line: 78.7

Input line: What measured inhibition goes with Cc1nc2ccc(F)cc2c(=O)n1[C@H]1CC[C@H](n2c(C)nc3ccc(F)cc3c2=O)CC1 [Compound 3d] ?
Output line: 90

Input line: So what's the measured inhibition for this one? CNC(=O)c1cc(Oc2ccc(NC(=O)Nc3ccc(Cl)c(C(F)(F)F)c3)cc2)ccn1 [Sorafenib, sorafenib, reference compound]
Output line: 91.2
